target-or-system: MAP kinase-activated protein kinase 2 (Homo sapiens)
Sequence (P49137 whole entry): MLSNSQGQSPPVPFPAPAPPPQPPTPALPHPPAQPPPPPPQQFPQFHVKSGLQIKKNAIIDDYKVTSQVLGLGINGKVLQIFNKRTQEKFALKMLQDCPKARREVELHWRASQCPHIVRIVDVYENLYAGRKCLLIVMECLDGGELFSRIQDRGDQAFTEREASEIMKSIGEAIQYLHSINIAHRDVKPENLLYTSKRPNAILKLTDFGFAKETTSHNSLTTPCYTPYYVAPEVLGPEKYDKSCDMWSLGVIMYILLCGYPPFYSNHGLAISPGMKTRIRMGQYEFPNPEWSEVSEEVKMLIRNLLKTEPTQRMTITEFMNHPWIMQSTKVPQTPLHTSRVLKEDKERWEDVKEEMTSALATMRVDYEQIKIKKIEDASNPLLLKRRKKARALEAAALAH
test-name: Inhibition of human recombinant phospho-MK2 (36-400) by HTRF assay
value-kind: IC50 (µM)
All answers are understood in µM, so give the number only.

# lookup: IC50 of Nc1ncnc2c1ncn2[C@@H]1O[C@H](COP(=O)(O)OP(=O)(O)OP(=O)(O)O)[C@@H](O)[C@H]1O (single isomer, unassigned) [ADENOSINE TRIPHOSPHATE] 2.8

====

target-or-system: MAP kinase-activated protein kinase 2 (Homo sapiens)
test-name: Displacement of [8-3H]ATP from human recombinant MK2 (41-364) by scintillation proximity assay
value-kind: pIC50
Bear in mind: pIC50 is minus log10 of a mol/L concentration; give just that figure.

Identify the measured pIC50 of Nc1ncnc2c1ncn2[C@@H]1O[C@H](COP(=O)(O)OP(=O)(O)OP(=O)(O)O)[C@@H](O)[C@H]1O (single isomer, unassigned) [ADENOSINE TRIPHOSPHATE] for MAP kinase-activated protein kinase 2 (Homo sapiens). 4.92
